Target: CYP1A2 (Homo sapiens (Human))
Sequence (P05177 whole entry): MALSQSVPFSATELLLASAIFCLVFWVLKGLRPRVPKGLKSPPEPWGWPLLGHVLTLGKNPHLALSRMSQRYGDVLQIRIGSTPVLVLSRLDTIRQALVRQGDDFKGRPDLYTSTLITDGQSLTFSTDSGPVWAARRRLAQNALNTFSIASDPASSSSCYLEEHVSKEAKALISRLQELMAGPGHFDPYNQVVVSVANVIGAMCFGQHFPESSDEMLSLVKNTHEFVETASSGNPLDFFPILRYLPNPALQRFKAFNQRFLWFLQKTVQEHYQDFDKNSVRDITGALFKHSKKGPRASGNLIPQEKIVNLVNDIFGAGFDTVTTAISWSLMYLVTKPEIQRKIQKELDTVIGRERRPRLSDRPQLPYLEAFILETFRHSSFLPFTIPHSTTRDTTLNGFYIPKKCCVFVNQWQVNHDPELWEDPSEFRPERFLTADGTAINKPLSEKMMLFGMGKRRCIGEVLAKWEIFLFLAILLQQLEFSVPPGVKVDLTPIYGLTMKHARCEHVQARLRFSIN
Test: CYP enzyme inhibition, fluorescent substrate (CEC)
Please go through the items and note down their IC50.

Supply IC50 measured with CYP1A2 (Homo sapiens (Human)) for CCCS(=O)(=O)Nc1ccc(F)c(C(=O)c2c[nH]c3ncc(Cl)c(C#N)c23)c1F .
> 10 µM

Write IC50 of O=C(c1c(F)ccc(NS(=O)(=O)c2cc(F)ccc2F)c1F)c1c[nH]c2ncnc(C3CC3)c12 ; system used: CYP1A2 (Homo sapiens (Human))
5 to 10 µM

Write down measured IC50 (CYP1A2 (Homo sapiens (Human))) for this compound. CCCS(=O)(=O)Nc1ccc(F)c(C(=O)c2c[nH]c3ncc(Cl)c(OC)c23)c1F
> 10 µM

Enter measured IC50, system CYP1A2 (Homo sapiens (Human)), for the compound shown: Cc1c(Cl)cnc2[nH]cc(C(=O)c3c(F)ccc(NS(=O)(=O)c4ccc(C(F)(F)F)cc4)c3F)c12
> 10 µM

Fetch value of IC50 on CYP1A2 (Homo sapiens (Human)) for CCCS(=O)(=O)Nc1ccc(F)c(C(=O)c2c[nH]c3ncnc(OCC)c23)c1F .
> 10 µM

###

Molecular target: CYP2C19 (Homo sapiens (Human))
Sequence (P33261 whole entry): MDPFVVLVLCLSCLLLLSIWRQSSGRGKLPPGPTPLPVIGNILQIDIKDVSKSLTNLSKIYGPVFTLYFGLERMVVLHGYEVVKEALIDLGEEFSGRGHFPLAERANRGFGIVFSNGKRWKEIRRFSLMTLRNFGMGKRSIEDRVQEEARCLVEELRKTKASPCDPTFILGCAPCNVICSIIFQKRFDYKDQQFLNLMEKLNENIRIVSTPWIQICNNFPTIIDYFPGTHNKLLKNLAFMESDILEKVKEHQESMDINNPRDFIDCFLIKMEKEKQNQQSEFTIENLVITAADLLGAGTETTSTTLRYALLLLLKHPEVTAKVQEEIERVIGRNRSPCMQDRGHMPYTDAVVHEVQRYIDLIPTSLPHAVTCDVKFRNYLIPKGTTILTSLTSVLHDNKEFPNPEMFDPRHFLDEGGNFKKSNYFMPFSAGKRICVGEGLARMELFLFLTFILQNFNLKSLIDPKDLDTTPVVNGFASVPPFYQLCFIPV
Test: CYP enzyme inhibition, fluorescent substrate (CEC)
Details: read-out: Cyp IC50 2C19; CYP2C19, substrate CEC
readout: IC50

Specify reported IC50 for the compound shown: CC(C)Nc1ncnc2[nH]cc(C(=O)c3c(F)ccc(NS(=O)(=O)c4ccc(C(C)C)cc4)c3F)c12
< 5 µM

# return recorded IC50 for entry O=C(c1c(F)ccc(NS(=O)(=O)c2ccccc2F)c1F)c1c[nH]c2ncnc(NC3CC3)c12
> 10 µM

Determine its reported IC50: CCCc1ccc(S(=O)(=O)Nc2ccc(F)c(C(=O)c3c[nH]c4ncnc(O)c34)c2F)cc1
> 10 µM

Note down IC50 recorded for O=C(c1c(F)ccc(NS(=O)(=O)c2ccc(C(F)(F)F)cc2)c1F)c1c[nH]c2ncnc(NC3CCOCC3)c12
> 10 µM

###

System: B-Raf
Assay: B-Raf kinase activity biochemical assay (AlphaScreen, biotin-MEK1 phosphorylation)
Conditions: ratio of IC50 B-Raf / c-Raf-1
readout: Biochemical activity ratio B/C

Input O=C(c1c(F)ccc(NS(=O)(=O)c2ccc(C(F)(F)F)cc2)c1F)c1c[nH]c2ncnc(NC3CCOC3)c12 (stereo not shown) , output reported Biochemical activity ratio B/C.
0.1-10

State its Biochemical activity ratio B/C: CCCS(=O)(=O)Nc1ccc(F)c(C(=O)c2c[nH]c3ncnc(NC4COC4)c23)c1F
>10

Please report Biochemical activity ratio B/C for the following molecule: O=C(c1c(F)ccc(NS(=O)(=O)c2ccc(C(F)(F)F)cc2)c1F)c1c[nH]c2ncnc(N3CCOCC3)c12
0.1-10

Give Biochemical activity ratio B/C for O=C(c1c(F)ccc(NS(=O)(=O)c2ccc(C(F)(F)F)cc2)c1F)c1c[nH]c2ncnc(O)c12
0.1-10

# return recorded Biochemical activity ratio B/C for input O=C(c1c(F)ccc(NS(=O)(=O)c2ccc(C(F)(F)F)cc2)c1F)c1c[nH]c2ncnc(Cl)c12
>10

// Input: O=C(c1c(F)ccc(NS(=O)(=O)c2ccc(C(F)(F)F)cc2)c1F)c1c[nH]c2ncnc(NC3CC3)c12 . Output its Biochemical activity ratio B/C only.
>10

Answer with reported Biochemical activity ratio B/C of CCCS(=O)(=O)Nc1ccc(F)c(C(=O)c2c[nH]c3ncc(Cl)c(C#N)c23)c1F
0.1-10

###

Target: B-Raf V600E (Homo sapiens (Human), UniProt P15056, V600E)
Sequence (P15056 whole entry V600E): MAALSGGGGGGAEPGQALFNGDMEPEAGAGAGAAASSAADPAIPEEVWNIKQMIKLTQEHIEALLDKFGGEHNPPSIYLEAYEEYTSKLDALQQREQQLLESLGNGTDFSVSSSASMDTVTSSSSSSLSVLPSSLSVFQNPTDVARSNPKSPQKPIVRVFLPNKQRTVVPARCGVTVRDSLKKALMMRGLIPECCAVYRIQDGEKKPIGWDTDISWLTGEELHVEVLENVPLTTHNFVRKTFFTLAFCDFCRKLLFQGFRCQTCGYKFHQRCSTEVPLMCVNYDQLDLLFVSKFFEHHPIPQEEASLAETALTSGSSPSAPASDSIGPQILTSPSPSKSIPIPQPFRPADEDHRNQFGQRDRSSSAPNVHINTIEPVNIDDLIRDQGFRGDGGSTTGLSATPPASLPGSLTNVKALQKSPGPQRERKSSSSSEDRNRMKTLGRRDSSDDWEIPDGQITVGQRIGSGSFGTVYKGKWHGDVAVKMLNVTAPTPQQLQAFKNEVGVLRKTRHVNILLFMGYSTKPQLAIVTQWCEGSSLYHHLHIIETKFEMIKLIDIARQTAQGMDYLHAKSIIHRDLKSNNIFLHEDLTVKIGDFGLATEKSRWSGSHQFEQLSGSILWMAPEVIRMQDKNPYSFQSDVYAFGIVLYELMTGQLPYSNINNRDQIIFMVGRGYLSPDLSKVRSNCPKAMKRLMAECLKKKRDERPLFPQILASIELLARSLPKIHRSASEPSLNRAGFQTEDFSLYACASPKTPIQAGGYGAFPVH
Assay: B-Raf V600E kinase activity biochemical assay (AlphaScreen, biotin-MEK1 phosphorylation)
Details: ratio of IC50 B-Raf V600E / c-Raf-1
readout: Biochemical activity ratio V600E/C

Specify Biochemical activity ratio V600E/C for CN(C)CCNc1ncnc2[nH]cc(C(=O)c3c(F)ccc(NS(=O)(=O)c4ccc(C(F)(F)F)cc4)c3F)c12 , system B-Raf V600E (Homo sapiens (Human), UniProt P15056, V600E).
>10

Report measured Biochemical activity ratio V600E/C on B-Raf V600E (Homo sapiens (Human), UniProt P15056, V600E); entry: COc1ncnc2[nH]cc(C(=O)c3c(F)ccc(NS(=O)(=O)c4cc(C)cc(C)c4)c3F)c12
0.1-10

Write down measured Biochemical activity ratio V600E/C (B-Raf V600E (Homo sapiens (Human), UniProt P15056, V600E)) for this compound. Cc1cc(C)cc(S(=O)(=O)Nc2ccc(F)c(C(=O)c3c[nH]c4ncnc(C)c34)c2F)c1
0.1-10

Report Biochemical activity ratio V600E/C on B-Raf V600E (Homo sapiens (Human), UniProt P15056, V600E) for this entry: COc1ccc(S(=O)(=O)Nc2ccc(F)c(C(=O)c3c[nH]c4ncnc(OC)c34)c2F)cn1
0.1-10

Give Biochemical activity ratio V600E/C only, for O=C(c1c(F)ccc(NS(=O)(=O)c2ccc(C(F)(F)F)cc2)c1F)c1c[nH]c2ncnc(OC3CCOCC3)c12 , using B-Raf V600E (Homo sapiens (Human), UniProt P15056, V600E) data.
>10

Fill in: Biochemical activity ratio V600E/C on B-Raf V600E (Homo sapiens (Human), UniProt P15056, V600E), entry O=C(c1c(F)ccc(NS(=O)(=O)c2ccc(C(F)(F)F)cc2)c1F)c1c[nH]c2ncnc(NC3CCOC3)c12 (stereo not shown)
>10

Provide Biochemical activity ratio V600E/C, recorded with B-Raf V600E (Homo sapiens (Human), UniProt P15056, V600E), of CCCS(=O)(=O)Nc1ccc(F)c(C(=O)c2c[nH]c3ncc(OC)c(Cl)c23)c1F
0.1-10

###

Biological target: UniProt P08684
Sequence (P08684 whole entry): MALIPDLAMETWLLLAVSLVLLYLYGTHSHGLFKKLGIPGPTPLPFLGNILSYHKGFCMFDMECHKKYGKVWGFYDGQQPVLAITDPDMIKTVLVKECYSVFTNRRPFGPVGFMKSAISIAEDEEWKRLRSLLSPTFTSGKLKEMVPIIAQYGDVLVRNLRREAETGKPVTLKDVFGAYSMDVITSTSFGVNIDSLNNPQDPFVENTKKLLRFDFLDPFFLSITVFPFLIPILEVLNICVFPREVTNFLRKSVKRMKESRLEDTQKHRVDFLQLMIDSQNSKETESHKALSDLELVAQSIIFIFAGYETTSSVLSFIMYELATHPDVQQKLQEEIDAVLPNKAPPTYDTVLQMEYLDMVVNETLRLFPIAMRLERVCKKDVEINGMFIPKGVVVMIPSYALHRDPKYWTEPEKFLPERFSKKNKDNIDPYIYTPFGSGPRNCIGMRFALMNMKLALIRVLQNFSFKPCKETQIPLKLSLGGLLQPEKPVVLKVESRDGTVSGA
Assay: CYP enzyme inhibition, fluorescent substrate BQ
readout: IC50

Return IC50 for the following compound: CCCS(=O)(=O)Nc1ccc(F)c(C(=O)c2c[nH]c3ncc(C)c(Cl)c23)c1F
> 10 µM

Report measured IC50; entry is CCCS(=O)(=O)Nc1ccc(F)c(C(=O)c2c[nH]c3ncc(Cl)c(C)c23)c1F
> 10 µM

Quickly give me recorded IC50 for CCCS(=O)(=O)Nc1ccc(F)c(C(=O)c2c[nH]c3ncc(F)c(C#N)c23)c1F
5 to 10 µM

Give me measured IC50, please, for this compound: CCCS(=O)(=O)Nc1ccc(F)c(C(=O)c2c[nH]c3ncc(Cl)c(C#N)c23)c1F
> 10 µM

Please supply the value of reported IC50 for the item Cn1cc(Nc2ncnc3[nH]cc(C(=O)c4c(F)ccc(NS(=O)(=O)c5ccc(C(F)(F)F)cc5)c4F)c23)cn1
5 to 10 µM

Entry Cc1ncnc2[nH]cc(C(=O)c3c(F)ccc(NS(=O)(=O)CC(C)C)c3F)c12 needs its IC50 filled in; supply it.
5 to 10 µM

Quote IC50 reported for CCCS(=O)(=O)Nc1ccc(F)c(C(=O)c2c[nH]c3ncc(C#N)c(OC)c23)c1F please.
> 10 µM

For the compound CCCS(=O)(=O)Nc1ccc(F)c(C(=O)c2c[nH]c3ncnc(OCC)c23)c1F , give its measured IC50 value.
> 10 µM

Name the recorded IC50 of the item Cc1c(Cl)cnc2[nH]cc(C(=O)c3c(F)ccc(NS(=O)(=O)c4ccc(C(F)(F)F)cc4)c3F)c12 in your answer.
> 10 µM

###

For each of the compounds below, state its IC50.
Biological target: B-Raf (Homo sapiens (Human))
Sequence (P15056 whole entry): as the sequence (P15056 whole entry V600E) above, with E600V counted along it
Experiment: B-Raf kinase activity biochemical assay (AlphaScreen, biotin-MEK1 phosphorylation)
Settings: B-Raf

Give reported IC50 for O=C(c1c(F)ccc(NS(=O)(=O)c2ccc(C(F)(F)F)cc2)c1F)c1c[nH]c2nccc(NC3CCOCC3)c12 (B-Raf (Homo sapiens (Human)))
> 0.1 µM

Fill in IC50 for CCn1cc(Nc2ncnc3[nH]cc(C(=O)c4c(F)ccc(NS(=O)(=O)c5ccc(C(F)(F)F)cc5)c4F)c23)cn1 tested with B-Raf (Homo sapiens (Human)).
< 0.1 µM

Enter recorded IC50 with B-Raf (Homo sapiens (Human)) for CCNc1ncnc2[nH]cc(C(=O)c3c(F)ccc(NS(=O)(=O)c4ccc(C(F)(F)F)cc4)c3F)c12 here.
< 0.1 µM

Enter recorded IC50 with B-Raf (Homo sapiens (Human)) for Cc1cc(C)cc(S(=O)(=O)Nc2ccc(F)c(C(=O)c3c[nH]c4ncnc(NC(C)C)c34)c2F)c1 here.
> 0.1 µM

Using B-Raf (Homo sapiens (Human)) as the test system, report measured IC50 of O=C(c1c(F)ccc(NS(=O)(=O)c2ccc(C(F)(F)F)cc2)c1F)c1c[nH]c2ncnc(OC3CCOCC3)c12 .
> 0.1 µM

Retrieve IC50 on B-Raf (Homo sapiens (Human)); query CCCS(=O)(=O)Nc1ccc(F)c(C(=O)c2c[nH]c3ncnc(OCC)c23)c1F
> 0.1 µM

Supply IC50 measured with B-Raf (Homo sapiens (Human)) for Cc1ncnc2[nH]cc(C(=O)c3c(F)ccc(NS(=O)(=O)CC(C)C)c3F)c12 .
> 0.1 µM

Please report the measured IC50 for CCCS(=O)(=O)Nc1ccc(F)c(C(=O)c2c[nH]c3ncc(F)c(C#N)c23)c1F tested on B-Raf (Homo sapiens (Human)).
< 0.1 µM

Quote B-Raf (Homo sapiens (Human)) IC50 for entry CC(C)CNc1ncnc2[nH]cc(C(=O)c3c(F)ccc(NS(=O)(=O)c4ccc(C(F)(F)F)cc4)c3F)c12 .
< 0.1 µM

# return IC50 of CCCc1ccc(S(=O)(=O)Nc2ccc(F)c(C(=O)c3c[nH]c4ncnc(NC5COC5)c34)c2F)cc1 (system: B-Raf (Homo sapiens (Human)))
< 0.1 µM

Quote B-Raf (Homo sapiens (Human)) IC50 for entry COCCNc1ncnc2[nH]cc(C(=O)c3c(F)ccc(NS(=O)(=O)c4ccc(C(F)(F)F)cc4)c3F)c12 .
< 0.1 µM

Provide measured IC50 on B-Raf (Homo sapiens (Human)) for CCCc1ccc(S(=O)(=O)Nc2ccc(F)c(C(=O)c3c[nH]c4ncnc(NC5CC5)c34)c2F)cc1 please.
< 0.1 µM

Lab note: B-Raf (Homo sapiens (Human)) assay, enter IC50 for O=C(c1c(F)ccc(NS(=O)(=O)c2ccccc2)c1F)c1c[nH]c2nccc(C(F)(F)F)c12 here
> 0.1 µM

# return IC50 for CC(C)COc1ncnc2[nH]cc(C(=O)c3c(F)ccc(NS(=O)(=O)c4ccc(C(F)(F)F)cc4)c3F)c12 , test system: B-Raf (Homo sapiens (Human))
> 0.1 µM

# assay system B-Raf (Homo sapiens (Human)): give IC50 of CCc1ccc(S(=O)(=O)Nc2ccc(F)c(C(=O)c3c[nH]c4ncnc(OC)c34)c2F)cc1
> 0.1 µM
